Listing of entries alongside the reported Liver microsomal stability (% remaining after 30 min) Human.
Assay: Liver microsomal stability, human
Type: in vitro ADME
Settings: 1 μM, 0.5 mg/mL microsomal protein, NADPH, 37 °C
Readout name: Liver microsomal stability (% remaining after 30 min) Human

Compound	Result
C=CC(=O)Nc1cc(Nc2ncc(I)c(Nc3ccccc3P(C)(C)=O)n2)c(OC)cc1N(C)CCN(C)C [Compound 7h]	65 % remaining after 30 min
C=CC(=O)Nc1cc(Nc2ncc(F)c(Nc3ccccc3S(=O)(=O)C(C)C)n2)c(OC)cc1N(C)CCN(C)C [Compound 7b]	26 % remaining after 30 min
C=CC(=O)Nc1cc(Nc2nccc(Nc3ccccc3S(=O)(=O)C(C)C)n2)c(OC)cc1N(C)CCN(C)C [Compound 7a]	5 % remaining after 30 min
C=CC(=O)Nc1cc(Nc2nccc(Nc3ccccc3P(C)(C)=O)n2)c(OC)cc1N(C)CCN(C)C [Compound 7e]	70 % remaining after 30 min
C=CC(=O)Nc1cc(Nc2nccc(Nc3ccccc3S(=O)(=O)N(C)C)n2)c(OC)cc1N(C)CCN(C)C [Compound 7i]	10 % remaining after 30 min
C=CC(=O)Nc1cc(Nc2ncc(I)c(Nc3ccccc3S(=O)(=O)C(C)C)n2)c(OC)cc1N(C)CCN(C)C [Compound 7d]	14 % remaining after 30 min
C=CC(=O)Nc1cc(Nc2ncc(F)c(Nc3ccccc3P(C)(C)=O)n2)c(OC)cc1N(C)CCN(C)C [Compound 7f]	84 % remaining after 30 min
C=CC(=O)Nc1cc(Nc2ncc(Cl)c(Nc3ccccc3S(=O)(=O)C(C)C)n2)c(OC)cc1N(C)CCN(C)C [Compound 7c]	16 % remaining after 30 min
C=CC(=O)Nc1cc(Nc2ncc(Cl)c(Nc3ccccc3P(C)(C)=O)n2)c(OC)cc1N(C)CCN(C)C [Compound 7g]	61 % remaining after 30 min

====

Listing of entries alongside the reported Cytochrome P450 inhibition (% of control) 1A2.
Target: CYP1A2 (Homo sapiens, UniProt P05177)
Sequence (P05177 1-516): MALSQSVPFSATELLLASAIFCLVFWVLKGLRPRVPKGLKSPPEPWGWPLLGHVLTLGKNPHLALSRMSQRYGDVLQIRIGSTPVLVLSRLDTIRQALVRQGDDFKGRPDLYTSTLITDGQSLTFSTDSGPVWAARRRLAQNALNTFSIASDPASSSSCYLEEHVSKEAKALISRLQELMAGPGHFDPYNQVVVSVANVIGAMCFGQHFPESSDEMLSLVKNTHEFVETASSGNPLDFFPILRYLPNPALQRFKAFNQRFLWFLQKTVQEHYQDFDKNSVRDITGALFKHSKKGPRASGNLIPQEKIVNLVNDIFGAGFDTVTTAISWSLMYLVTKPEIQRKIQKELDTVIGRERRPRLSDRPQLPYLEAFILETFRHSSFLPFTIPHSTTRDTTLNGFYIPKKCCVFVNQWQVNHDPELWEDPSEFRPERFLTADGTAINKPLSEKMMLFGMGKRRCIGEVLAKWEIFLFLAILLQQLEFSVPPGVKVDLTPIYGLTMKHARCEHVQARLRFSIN
Assay: Cytochrome P450 inhibition assay, CYP1A2
Assay type: in vitro ADME
Conditions: CYP activity as % of control, 10 μM, human liver microsomes
Readout name: Cytochrome P450 inhibition (% of control) 1A2

Compound structure	System tested	Result
C=CC(=O)Nc1cc(Nc2ncc(Cl)c(Nc3ccccc3P(C)(C)=O)n2)c(OC)cc1N(C)CCN(C)C	CYP1A2 (Homo sapiens, UniProt P05177)	93 % of control
C=CC(=O)Nc1cc(Nc2nccc(Nc3ccccc3P(C)(C)=O)n2)c(OC)cc1N(C)CCN(C)C	CYP1A2 (Homo sapiens, UniProt P05177)	84 % of control
C=CC(=O)Nc1cc(Nc2ncc(F)c(Nc3ccccc3P(C)(C)=O)n2)c(OC)cc1N(C)CCN(C)C	CYP1A2 (Homo sapiens, UniProt P05177)	>100 % of control
C=CC(=O)Nc1cc(Nc2nccc(Nc3ccccc3S(=O)(=O)C(C)C)n2)c(OC)cc1N(C)CCN(C)C	CYP1A2 (Homo sapiens, UniProt P05177)	80 % of control
C=CC(=O)Nc1cc(Nc2ncc(F)c(Nc3ccccc3S(=O)(=O)C(C)C)n2)c(OC)cc1N(C)CCN(C)C	CYP1A2 (Homo sapiens, UniProt P05177)	91 % of control
C=CC(=O)Nc1cc(Nc2ncc(Cl)c(Nc3ccccc3S(=O)(=O)C(C)C)n2)c(OC)cc1N(C)CCN(C)C	CYP1A2 (Homo sapiens, UniProt P05177)	89 % of control
